Could you please report measured reaction products of prenyl acceptor with hypSc for the items listed next?
Test system: HypSc
TEST_DETAILS: Detection of prenyltransferase activity of HypSc (TLC)
Type: biochemical, Streptomyces coelicolor A3(2)
MEASUREMENT_CONDITIONS: assay of Example 5 repeated with hypSc
Description: FIG. 7 relates to the functional evaluation of HypSc. Thus, HypSc prenyltransferase activity was assayed as described above with respect to FIG. 2A, using 1,6-DHN as a prenyl acceptor (in each of lanes 1-4), with no prenyl acceptor in lane 1, DMAPP in lanes 2 and 3, and GPP in lane 4. No Mg^2+ was used in lane 2. The samples were incubated overnight at room temperature. […]

MOLECULE: Oc1ccc2ccc(O)cc2c1
REPORTED: 1-dimethylallyl-2,7-DHN

For every item in the list below, what is its measured reaction products of prenyl acceptor with hypSc?
1. Oc1ccc2c(O)cccc2c1 [1,6-DHN, 1,6-dihydroxynaphthalene]
2. Oc1ccc(C=Cc2cc(O)cc(O)c2)cc1 [resveratrol, 3,4′,5-trihydroxystilbene]

A)
5-dimethylallyl-1,6-DHN
4-dimethylallyl-resveratrol

* * *

System: Orf2
TEST_DETAILS: Detection of prenyltransferase activity of ORF2, TLC with UV 254 nm, incl. Mg2+ dependence
Format: biochemical, Streptomyces sp. strain CL190
MEASUREMENT_CONDITIONS: additional studies of Example 5
READOUT_LABEL: reaction products of prenyl acceptor with ORF2

MOLECULE: Oc1ccc2c(O)cccc2c1 [1,6-DHN, 1,6-dihydroxynaphthalene]
ASSAYED_TARGET: Orf2
REPORTED: 5-geranyl-1,6-DHN and 2-geranyl-1,6-DHN
//
MOLECULE: Oc1ccc(C=Cc2cc(O)cc(O)c2)cc1 [resveratrol, 3,4′,5-trihydroxystilbene]
ASSAYED_TARGET: Orf2
REPORTED: 4-geranyl-resveratrol
//
MOLECULE: O=c1c(-c2ccc(O)cc2)coc2cc(O)cc(O)c12 [genistein, 5,7,4′-trihydroxyisoflavone]
ASSAYED_TARGET: Orf2
REPORTED: 7-O-geranyl-genistein
